Tested on: HCT-116 colon
protocolSummary: NCI tumour cell line growth inhibition, 48 h
TGI values for the compounds below.

[in] Give recorded TGI with HCT-116 colon for the following compound: CCC1C(=O)OCc2c1cc1n(c2=O)CCC12OCCO2 (stereo not given)
[out] > 100 µM

---

Tested on: SF-295 CNS
protocolSummary: NCI tumour cell line growth inhibition, 48 h
TGI values for the compounds below.

INSERT INTO results (compound, measured) VALUES
  ('COc1ccc(CN2C(=O)C(=O)N(C)C2=O)c2ccccc12', '> 10 µM'),
  ('CC/C=C\C/C=C\C/C=C\CCCCCCCC(=O)OC(COC(=O)CCCCCCCCCCCCCCCCC)COC1OC(CO)C(O)C(O)C1O (stereo not drawn)', '> 25 µM'),
  ('NCCN1CCN(c2nccc(-c3ccc4ccccc4c3)n2)CC1', '3.34 µM'),
  ('FC(F)(F)c1ccc2c(Nc3cccc(C4CC(c5ccccc5)=NN4c4ccc(Cl)cc4)c3)ccnc2c1 (stereo not drawn)', '8.67 µM'),
  ('C=CC(=O)Nc1cccc(Nc2nc(Nc3ccc(OCCOC)cc3)ncc2F)c1', '14 µM'),
  ('CNC(=O)c1cc(Oc2ccc(NC(=O)Nc3ccc(Cl)c(OC(F)(F)F)c3)c(F)c2)ccn1', '5.25 µM');

[in] # query: TGI of entry COc1ccc(CCCCl)c(C2=NCCc3ccccc32)c1
[out] > 100 µM

[in] Another: Cc1cn(C2CC(OC(c3ccccc3)(c3ccccc3)c3ccccc3)C(COC(c3ccccc3)(c3ccccc3)c3ccccc3)O2)c(=O)[nH]c1=O (stereo not drawn)
[out] > 100 µM

[in] Another: c1ccc2c(c1)N=C(c1cccc3ccccc13)CC(c1cccc3ccccc13)S2 (stereo not drawn)
[out] 27.2 µM

[in] Another: Oc1ccc(Cc2ccccc2)c2cccnc12
[out] 20.5 µM

[in] Another: COc1ccc(C2=NC(C)(C)CO2)cc1
[out] > 100 µM

[in] Another: CN(C)CCNC(=O)Nc1c(C#N)[n+]([O-])c2cc(Cl)c(Cl)cc2[n+]1[O-]
[out] 84.8 µM

[in] Another: CN1c2ccccc2C(=O)NC12CCN(CC1COc3ccccc3O1)CC2 (stereo not drawn)
[out] > 100 µM

---

Tested on: A549 NSCLC
protocolSummary: NCI tumour cell line growth inhibition, 48 h; in the data active = GI50 below about 0.43 µM; inactive = the rest
Parameter call: string, one of True = active, False = inactive

// below: answered compounds
INSERT INTO results (compound, classification) VALUES
  ('CC(=O)n1c(-c2ccc(Cl)cc2)nc2c(c1=O)C(c1ccc(Cl)cc1)c1sc3c(Cl)cccc3c1O2 (stereo unspecified)', 'False'),
  ('C=C1C(=O)O[C@H]2[C@H]1CC/C(COC(=O)c1cc3cc(OC)ccc3[nH]1)=C\CC[C@@]1(C)O[C@@H]21', 'False'),
  ('COc1ccc2c(c1)C=CC(C#N)N2C(=O)c1ccccc1 (stereo unspecified)', 'True');

[in] What did the test return for O=C(N/N=C/c1ccc(Cl)cc1Cl)c1ccccc1Nc1cccc(C(F)(F)F)c1 ?
[out] False

[in] Another: Cc1ncc(NC(=O)c2ccc(CN3CCN(C)CC3)c(C(F)(F)F)c2)cc1Nc1nccc(-c2cccnc2)n1
[out] False

---

Tested on: HT29 colon
protocolSummary: NCI tumour cell line growth inhibition, 48 h
measurementKind: TGI

INSERT INTO assay_data (compound, measurementkind, measured) VALUES
  ('Cc1ncc(NC(=O)c2ccc(CN3CCN(C)CC3)c(C(F)(F)F)c2)cc1Nc1nccc(-c2cccnc2)n1', 'TGI', '21.8 µM');

[in] # query: TGI of entry CCOC(=O)c1ccc(C(=O)/C(C(=O)OC(C)(C)C)=C2\CCCN2C)n1C
[out] > 100 µM

[in] Another: CCOC(=O)c1[nH]c2nc(SC)nc(NC)c2c1N
[out] > 100 µM

---

TGI values for the compounds below.
System: SN12C renal
protocolSummary: NCI tumour cell line growth inhibition, 48 h
Give the value, in units of µM, as a plain number.

INSERT INTO measurements (compound, measurementkind, measured) VALUES
  ('CCCS(=O)(=O)c1nc(NC2CC2)cc(-c2ccc3c(ccn3C3CC(C)(C)NC(C)(C)C3)c2)n1', 'TGI', 3.8),
  ('COC(=O)C(CCSC)NC(=O)CSc1nnc(COc2ccc(Cl)cc2)n1-c1ccccc1 (configuration not stated)', 'TGI', 33.1);

Let us move to another entry and its TGI.
[in] # query: TGI of entry CC(=O)[CH-]C(C)=O.CC(=O)[CH-]C(C)=O.N=CC=N.[Sn+2]
[out] 9.14

---

TGI values for the compounds below.
Test system: HCC-2998 colon
protocolSummary: NCI tumour cell line growth inhibition, 48 h

INSERT INTO results (compound, measured) VALUES
  ('CC1(C)CCc2cc3c(cc2O1)OCCC3=O', '> 100 µM'),
  ('O=C(NCCCNCCCCNCCCNC(=O)C(F)(F)F)C(F)(F)F', '> 100 µM'),
  ('Cc1ncc(NC(=O)c2ccc(CN3CCN(C)CC3)c(C(F)(F)F)c2)cc1Nc1nccc(-c2cccnc2)n1', '26.6 µM'),
  ('FC(F)(F)c1ccc2c(Nc3cccc(C4CC(c5ccccc5)=NN4c4ccc(Cl)cc4)c3)ccnc2c1 (stereo not drawn)', '4.01 µM'),
  ('COC(=O)C(Cc1ccccc1)N/C=C\C(=O)c1ccc(Cl)cc1 (stereo not drawn)', '40.1 µM'),
  ('NC(=O)NC(=NCc1ccccc1)NCc1ccccc1', '> 100 µM');

[in] # query: TGI of entry CS(=O)(=O)Nc1ccc(-c2ccc3c(NC(=O)C4CC4)n[nH]c3c2)cc1
[out] > 25 µM

[in] Another: COC(=O)/C=C\S/C(=C(/c1ccccc1)n1ccc(C(=O)OC)n1)c1ccccc1
[out] > 100 µM

[in] Another: COc1cc(/C=C/c2cc(=O)cc(/C=C/c3ccc(O)c(OC)c3)o2)ccc1O
[out] > 100 µM

[in] Another: C=C(COC(C)=O)CC(/C=C(\C)CCC=C(C)C)OC(C)=O (stereo not drawn)
[out] > 100 µM

[in] Another: CCCCCC(=O)Oc1ccc(/C(=C(\C)c2ccc(OC)cc2)c2ccc(OCCN3CCCCC3)cc2)cc1
[out] 25.5 µM

[in] Another: CC(=O)n1c(-c2ccc(Cl)cc2)nc2c(c1=O)C(c1ccc(Cl)cc1)c1sc3c(Cl)cccc3c1O2 (stereo not drawn)
[out] 2.57 µM

[in] Another: CCOC(=O)c1ccc(C(=O)/C(C(=O)OC(C)(C)C)=C2\CCCN2C)n1C
[out] > 100 µM

[in] Another: O=C1CCn2c([nH]c3cccc4cccc2c43)=N1
[out] > 100 µM

[in] Another: COc1cc(CCCOC2OC(COC3OCC(O)C(O)C3O)C(O)C(O)C2O)cc2cc(-c3ccc4c(c3)OCO4)oc12 (stereo not drawn)
[out] > 98.4 µM

---

System: MDA-MB-231 breast
protocolSummary: NCI tumour cell line growth inhibition, 48 h; in the data active means GI50 below about 0.43 µM; inactive means the rest
Parameter call: string, one of 1 for active, 0 for inactive

// below: answered compounds
INSERT INTO assay_data (compound, classification) VALUES
  ('CC(=O)n1c(-c2ccc(Cl)cc2)nc2c(c1=O)C(c1ccc(Cl)cc1)c1sc3c(Cl)cccc3c1O2 (configuration not stated)', 0),
  ('CN1CCN(Cc2ccc(NC(=O)c3ccc(C(C)(C)C)c(C#Cc4cnc5cccnn45)c3)cc2C(F)(F)F)CC1', 0),
  ('COC(=O)c1c(O)ccc2[nH]c(C)c(C#N)c12', 0);

[in] What did the test return for N#Cc1c(-c2ccccc2)nc2c(c(-c3ccccc3)nn2-c2ccccc2)c1-c1ccc(O)cc1 ?
[out] 0

[in] Another: O=C1c2ccccc2-c2c1c1ccccc1c(=O)n2CCNCCCNCCn1c2c(c3ccccc3c1=O)C(=O)c1ccccc1-2
[out] 1

[in] Another: Oc1ccc(Cc2ccccc2)c2cccnc12
[out] 0

[in] Another: COc1cc(/C=C2\CC3C4CC=C5CC(N6CCCC6)CC[C@]5(C)C4CC[C@]3(C)C2OC(C)=O)ccc1OCCN1CCCC1 (some centres not stated)
[out] 0

[in] Another: C=C1C(=O)O[C@H]2[C@H]1CC/C(COC(=O)c1cc3cc(OC)ccc3[nH]1)=C\CC[C@@]1(C)O[C@@H]21
[out] 0

[in] Another: COc1ccc(C2C(C#N)=C(N)OC3=C2CCCc2ccc(F)cc23)cc1OC (configuration not stated)
[out] 0

[in] Another: COc1ccc(NC2=C(Br)C(=O)C(C)=C(C)C2=O)cc1
[out] 0

[in] Another: CNC(=O)c1ccc(-c2cnc3ncc(Cc4ccc5ncccc5c4)n3n2)cc1F
[out] 0

[in] Another: C=CC(=O)N1CCN(c2ncnc3c(F)c(-c4c(O)cccc4F)c(Cl)cc23)CC1
[out] 0
